A set of compounds tested on Alpha-glucosidase MAL12 (Saccharomyces cerevisiae S288c), with measured IC50:

[
  {
    "chemicalString": "O=[N+]([O-])c1ccc(-c2ccnc3nnnn23)cc1",
    "IC50 [µM]": 308
  },
  {
    "chemicalString": "Cc1ccc(-c2ccnc3nnnn23)cc1",
    "IC50 [µM]": 49.8
  },
  {
    "chemicalString": "c1ccc(-c2ccnc3nnnn23)nc1",
    "IC50 [µM]": 591
  },
  {
    "chemicalString": "c1ccc(-c2ccnc3nnnn23)cc1",
    "IC50 [µM]": 422
  },
  {
    "chemicalString": "Fc1ccc(-c2ccnc3nnnn23)cc1",
    "IC50 [µM]": 178
  },
  {
    "chemicalString": "c1csc(-c2ccnc3nnnn23)c1",
    "IC50 [µM]": 1010
  },
  {
    "chemicalString": "Clc1ccc(-c2ccnc3nnnn23)cc1",
    "IC50 [µM]": 421
  }
]
